Taken from ChEMBL document CHEMBL1961873.

Documented inhibition across a set of compounds
Target: Serine/threonine-protein kinase pim-2 (Homo sapiens) (UniProt Q9P1W9);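 also: each value is a mean of the inhibition measurements against the kinase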
Sequence (Q9P1W9 whole entry, looked up): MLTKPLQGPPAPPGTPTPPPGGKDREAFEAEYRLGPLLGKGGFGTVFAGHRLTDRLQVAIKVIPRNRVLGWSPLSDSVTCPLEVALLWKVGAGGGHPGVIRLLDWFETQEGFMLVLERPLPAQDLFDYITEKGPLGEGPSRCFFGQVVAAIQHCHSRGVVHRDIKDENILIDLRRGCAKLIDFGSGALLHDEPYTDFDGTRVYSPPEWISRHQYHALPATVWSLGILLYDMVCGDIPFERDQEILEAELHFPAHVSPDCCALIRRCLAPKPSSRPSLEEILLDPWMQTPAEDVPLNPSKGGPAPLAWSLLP
Conditions: at 1 µM
# unit: % | format: bare number

Q) Which inhibition reading was recorded for the compound `NC(=O)c1cc(-c2ccncc2)cc(-c2ccccc2)c1N` ?
A) 0.75

Q) Requested field: inhibition. Item: `CCN(CC)Cc1ccc(Nc2nccc(-c3cnn4ncccc34)n2)cc1`
A) -0.59

Q) Query (compound): COc1ccc2cc(-c3c(-c4ccncc4)nc(-c4ccc([S+](C)[O-])cc4C)n3C)ccc2c1 (stereo not drawn) ; field requested: inhibition
A) 0.03

---

Molecular target: Protein kinase C beta type (Homo sapiens) (UniProt P05771);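 also: GSK PKIS screen, average inhibition of the PKC-beta2 splice variant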
Sequence (P05771 2-671 limits assumed): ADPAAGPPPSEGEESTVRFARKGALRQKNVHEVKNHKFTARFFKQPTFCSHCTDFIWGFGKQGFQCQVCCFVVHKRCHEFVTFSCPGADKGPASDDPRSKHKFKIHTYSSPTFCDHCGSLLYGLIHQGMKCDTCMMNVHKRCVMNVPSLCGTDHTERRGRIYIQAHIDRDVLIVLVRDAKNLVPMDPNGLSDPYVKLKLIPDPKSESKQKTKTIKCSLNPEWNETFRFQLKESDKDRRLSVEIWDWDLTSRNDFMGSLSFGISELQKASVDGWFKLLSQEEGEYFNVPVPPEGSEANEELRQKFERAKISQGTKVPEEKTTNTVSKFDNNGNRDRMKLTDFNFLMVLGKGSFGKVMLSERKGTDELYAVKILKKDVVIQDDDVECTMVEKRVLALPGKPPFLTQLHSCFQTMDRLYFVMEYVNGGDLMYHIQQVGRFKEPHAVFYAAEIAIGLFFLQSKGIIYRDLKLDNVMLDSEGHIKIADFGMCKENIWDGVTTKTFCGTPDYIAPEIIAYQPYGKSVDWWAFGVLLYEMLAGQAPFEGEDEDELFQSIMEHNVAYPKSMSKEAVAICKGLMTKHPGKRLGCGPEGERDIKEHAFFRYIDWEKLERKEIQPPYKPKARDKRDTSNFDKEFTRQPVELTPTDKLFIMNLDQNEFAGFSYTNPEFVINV
Details: at 1 µM
Description: GSK_PKIS: PKC-beta2 (splice variant) mean inhibition at 1 uM [Nanosyn]
The entries below are paired with their reported inhibition.
Your answer is read as %, so omit the unit and give the number.

Q) Recorded inhibition of `C#Cc1cccc(Nc2ncnc3ccc(OCCCCNCCS(C)(=O)=O)cc23)c1` , please.
A) 6.61

Q) Value lookup for inhibition; key = `COc1ccc(-c2ccc3c(NC(=O)C4CC4)n[nH]c3n2)cc1`
A) 0.48

Q) What value of measured inhibition is listed for `COc1cc(Nc2ncc(-c3ccccc3)o2)cc(OC)c1OC` ?
A) 2.2

---

Biological target: Tyrosine-protein kinase ABL1 (Homo sapiens);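 also: reported values are mean percent inhibition of ABL1 kinase activity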
Conditions: at 1 µM
quantityMeasured: inhibition (%)
# number only, unit % dropped from output

Q) Query (molecule): `O=C(Nc1ccc(Oc2ccc3[nH]c(NC(=O)c4ccccc4)nc3c2)cc1)Nc1cc(C(F)(F)F)ccc1F` ; field requested: inhibition
A) 62.3

Q) Return reported inhibition; argument: `Fc1ccc(-c2ncn(C3CCNCC3)c2-c2ccnc(Oc3ccc(F)c(F)c3)n2)cc1`
A) -1.29

Q) May I ask what inhibition has been recorded for `C[C@@H](Oc1cc(-n2cnc3ccc(OCC4CCN(C)CC4)cc32)sc1C(N)=O)c1ccccc1Cl` ?
A) 14

More entries:
Q) Please give the measured inhibition for this molecule: `FC(F)(F)c1cccc(Nc2nccc(-c3cnn4nc(-c5ccccc5)ccc34)n2)c1`
A) 5.59

Q) Any idea what inhibition was measured for `CCc1nccc2c1nc(-c1nonc1N)n2CC` ?
A) 7.3

---

Entries and their inhibition
Target: Serine/threonine-protein kinase PAK 3 (Homo sapiens);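 also: mean percent inhibition of PAK3, measured in a screen of the GSK published kinase inhibitor set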
Conditions: at 0.1 µM
Expressed in %, but write only the number.

Q) Would you mind telling me what inhibition value was observed for `c1ccc(-c2n[nH]cc2-c2ccnc(-c3ccc(OCCN4CCOCC4)cc3)c2)nc1` ?
A) 3.54

Q) # get_value(readout='inhibition', item= `c1ccc(Oc2ccc(Nc3ncc(-c4ccccc4)o3)cc2)cc1` )
A) 0.64

Q) Requested read-out: inhibition. Entry: `O=C(Nc1ccc(Oc2ccc3[nH]c(NC(=O)c4ccccc4)nc3c2)cc1)Nc1cc(C(F)(F)F)ccc1F`
A) 2.23

Q) May I ask what inhibition has been recorded for `O=C1Nc2ccccc2/C1=C/Nc1ccc(-n2cncn2)cc1` ?
A) 5.31

Q) Which inhibition value is on record for Nc1nccc(-c2c(-c3ccc(F)cc3)ncn2C2CCC(O)CC2)n1 (stereo not given) ?
A) -3.15

Q) Which inhibition value is on record for `CS(=O)(=O)CCNCc1cc(-c2cc3c(Nc4ccc(OCc5cccc(F)c5)c(Cl)c4)ncnc3s2)cs1` ?
A) 4.86

---

Target: Tyrosine-protein kinase Tec (Homo sapiens);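 also: each value is the mean of the inhibition measurements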
Sequence (whole entry): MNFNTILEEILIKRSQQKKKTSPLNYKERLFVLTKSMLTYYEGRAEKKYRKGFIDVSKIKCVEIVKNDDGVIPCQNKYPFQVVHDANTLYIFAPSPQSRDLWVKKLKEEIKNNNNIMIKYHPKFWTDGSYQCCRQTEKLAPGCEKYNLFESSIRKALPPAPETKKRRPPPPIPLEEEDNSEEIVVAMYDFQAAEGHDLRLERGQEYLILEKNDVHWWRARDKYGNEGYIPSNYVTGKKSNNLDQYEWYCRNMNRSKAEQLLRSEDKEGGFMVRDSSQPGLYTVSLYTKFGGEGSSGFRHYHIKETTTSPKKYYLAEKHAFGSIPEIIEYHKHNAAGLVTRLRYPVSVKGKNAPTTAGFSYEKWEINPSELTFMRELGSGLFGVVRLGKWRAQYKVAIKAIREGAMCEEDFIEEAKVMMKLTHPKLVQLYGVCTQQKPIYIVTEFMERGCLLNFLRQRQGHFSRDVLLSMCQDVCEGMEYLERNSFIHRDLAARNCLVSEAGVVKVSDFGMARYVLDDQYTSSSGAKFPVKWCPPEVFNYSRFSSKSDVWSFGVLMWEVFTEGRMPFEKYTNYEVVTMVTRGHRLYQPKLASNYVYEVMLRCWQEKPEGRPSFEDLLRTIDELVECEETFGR
Conditions: at 1 µM
quantityMeasured: inhibition (%)
Give your result in % as a bare value.

Q) // returns reported inhibition for input `CS(=O)(=O)CCNCc1ccc(-c2ccc3ncnc(Nc4ccc(OCc5ccccc5)c(Br)c4)c3c2)o1`
A) 1.49

Q) Quick check: inhibition of `O=C(NCC1CC1)c1ccc(-c2cccc(C(=O)NC3CC3)c2)cc1` ?
A) 6.01

Q) Would you mind telling me what inhibition value was observed for `CCc1nccc2c1nc(-c1nonc1N)n2CC` ?
A) 5.82

Q) Reported inhibition, molecule `C#Cc1cccc(Nc2ncnc3ccc(OCCCCNCCS(C)(=O)=O)cc23)c1` : ____
A) 9.84

Q) Entry `CNC(=O)c1cncc(/C=C/c2c(C)cccc2C)c1` has what inhibition?
A) 38.2

Q) Query: inhibition; subject: `COc1cc(Nc2ncc(-c3ccccc3)o2)cc(OC)c1OC`
A) 4.55

Q) Looking for the measured inhibition of `NCc1ccc(-n2c(-c3nonc3N)nc3cnccc32)cc1` , can you help?
A) 4.95

Q) Value lookup for inhibition; key = `COc1cc2ncn(-c3cc(OCc4cccs4)c(C(N)=O)s3)c2cc1OC`
A) 2.67

Q) Consider the molecule shown here: `COc1cccc(/C=N/Nc2ncnc3c2cnn3-c2cccc(OC)c2)c1` What is its recorded inhibition?
A) 4.79

Q) Fill blank: measured inhibition of the molecule `O=C1Nc2ccc(I)cc2C1=Cc1cc(Br)c(O)c(Br)c1` is ____.
A) 3.72

New cases:
Q) Which measured inhibition value corresponds to `COc1ccc(C2=C(N3CCc4ccccc43)C(=O)NC2=O)cc1` ?
A) 6.81

Q) Please report the recorded inhibition for `COc1cc(N2CCN(C(C)C)CC2)ccc1Nc1nc(Nc2ccc(F)cc2C(=O)NC[C@@H](O)CO)c2cc[nH]c2n1` .
A) 1.93

Q) Would you mind telling me what inhibition value was observed for `O=C1Nc2ccccc2/C1=C/Nc1ccc(-n2cncn2)cc1` ?
A) 5.42

Q) Suppose we examine the molecule `Fc1ccc(-c2ncn(C3CCNCC3)c2-c2ccnc(Oc3ccc(F)c(F)c3)n2)cc1` ; what inhibition value has been reported?
A) 0.11

Q) Record request: inhibition value, item `Fc1ccc(-c2ncn(C3CCNCC3)c2-c2ccnc(Oc3ccc(Oc4ccccc4)cc3)n2)cc1`
A) 3.11

---

Biological target: cGMP-dependent protein kinase 1 (Homo sapiens)
Conditions: at 0.1 µM
Description: GSK_PKIS: PRKG1 mean inhibition at 0.1 uM [Nanosyn]
Consider the following compounds and their measured inhibition readings.
Lab note: write values as number then unit, every time.

Q) Which inhibition is reported for this compound? `O=C(Nc1n[nH]c2nc(-c3ccc(O)cc3)c(Br)cc12)C1CC1`
A) 3.5%

Q) Param item = `O=C1Nc2ccccc2/C1=C/Nc1ccc(-n2cncn2)cc1` ; retrieve measured inhibition.
A) 3.06%

***
Q) Looking for the measured inhibition of `O=C1Nc2ccc(I)cc2C1=Cc1cc(Br)c(O)c(Br)c1` , can you help?
A) 3.82%

---

Target: Tyrosine-protein kinase Fyn (Homo sapiens) (UniProt P06241)
Sequence (P06241 2-537 limits assumed): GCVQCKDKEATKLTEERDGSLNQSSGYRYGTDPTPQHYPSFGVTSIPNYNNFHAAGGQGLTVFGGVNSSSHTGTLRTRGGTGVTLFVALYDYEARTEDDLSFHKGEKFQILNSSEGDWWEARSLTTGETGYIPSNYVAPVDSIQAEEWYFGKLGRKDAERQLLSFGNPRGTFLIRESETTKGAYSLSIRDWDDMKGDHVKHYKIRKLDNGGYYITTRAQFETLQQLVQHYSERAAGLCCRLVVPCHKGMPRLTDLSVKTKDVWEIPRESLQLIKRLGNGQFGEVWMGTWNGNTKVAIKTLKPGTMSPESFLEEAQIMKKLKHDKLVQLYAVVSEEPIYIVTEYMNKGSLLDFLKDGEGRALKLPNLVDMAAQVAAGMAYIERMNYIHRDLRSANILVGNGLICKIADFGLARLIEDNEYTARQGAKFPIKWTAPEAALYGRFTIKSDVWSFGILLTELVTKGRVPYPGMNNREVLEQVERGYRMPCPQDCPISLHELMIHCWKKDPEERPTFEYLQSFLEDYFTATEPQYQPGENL
Settings: at 1 µM
Description: GSK_PKIS: FYN mean inhibition at 1 uM [Nanosyn]
In this section we review reported inhibition values for a set of compounds.
Output spec: scalar in %, unitless text.

Q) Requested field: inhibition. Item: `COc1ccc(C2=C(N3CCc4ccccc43)C(=O)NC2=O)cc1`
A) 4.68

Q) GET /values?readout=inhibition&item= `COc1cc(Nc2ncc3c(C)nc(-c4cccc(C(F)(F)F)c4)n3n2)cc(OC)c1OC`
A) 39.7

Further cases:
Q) Quick one: inhibition for `CN(C)CCOc1ccc(-c2cc(-c3ccc4c(c3)CCC4=NO)c(-c3ccncc3)o2)cc1` ?
A) 8

Q) Recorded inhibition for Nc1nccc(-c2c(-c3ccc(F)cc3)ncn2C2CCC(O)CC2)n1 (centres undefined) , please?
A) 6.58

---

Biological target: Macrophage colony-stimulating factor 1 receptor (Homo sapiens) (UniProt P07333);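 also: mean inhibition of FMS, from the GSK PKIS screening set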
Sequence (P07333 whole entry): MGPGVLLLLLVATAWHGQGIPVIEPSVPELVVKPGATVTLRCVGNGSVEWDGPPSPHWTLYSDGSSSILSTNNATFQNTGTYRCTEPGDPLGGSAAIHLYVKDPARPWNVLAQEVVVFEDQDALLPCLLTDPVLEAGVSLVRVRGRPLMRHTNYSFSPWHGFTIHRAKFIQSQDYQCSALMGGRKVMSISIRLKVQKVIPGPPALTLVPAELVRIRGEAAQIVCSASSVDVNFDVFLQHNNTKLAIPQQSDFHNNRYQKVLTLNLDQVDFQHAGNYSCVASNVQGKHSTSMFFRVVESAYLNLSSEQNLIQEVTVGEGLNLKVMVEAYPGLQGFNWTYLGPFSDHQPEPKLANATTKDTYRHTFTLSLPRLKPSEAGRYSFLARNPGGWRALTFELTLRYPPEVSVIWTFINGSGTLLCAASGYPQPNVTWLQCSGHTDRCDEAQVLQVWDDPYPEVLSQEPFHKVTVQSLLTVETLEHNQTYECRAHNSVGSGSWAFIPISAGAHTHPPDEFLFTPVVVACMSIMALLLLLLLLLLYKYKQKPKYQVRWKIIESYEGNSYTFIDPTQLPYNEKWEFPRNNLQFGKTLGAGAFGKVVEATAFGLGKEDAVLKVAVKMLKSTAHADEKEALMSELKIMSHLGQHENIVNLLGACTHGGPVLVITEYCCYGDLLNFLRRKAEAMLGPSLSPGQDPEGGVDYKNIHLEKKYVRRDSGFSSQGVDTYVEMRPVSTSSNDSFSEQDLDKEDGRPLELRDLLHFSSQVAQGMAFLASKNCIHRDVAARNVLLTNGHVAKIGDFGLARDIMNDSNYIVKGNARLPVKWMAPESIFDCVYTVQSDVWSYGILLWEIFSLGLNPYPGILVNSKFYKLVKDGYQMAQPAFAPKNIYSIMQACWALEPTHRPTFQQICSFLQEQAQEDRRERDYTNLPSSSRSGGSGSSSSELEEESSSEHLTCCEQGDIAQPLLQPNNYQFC
Details: at 1 µM
quantityMeasured: inhibition (%)
// units = %; emit number, no label

Completed entries (count: 3):
Q) Record request: inhibition value, item `NCc1ccc(-n2c(-c3nonc3N)nc3cnccc32)cc1`
A) 49.6

Q) Field request: inhibition | item: `Cc1ccc(NC(=O)c2ccoc2)cc1-c1ccc(C(=O)NCC2CC2)cc1`
A) 2.71

Q) Recorded inhibition of `O=C(Nc1ccc(Oc2ccc3[nH]c(NC(=O)c4ccccc4)nc3c2)cc1)Nc1cc(C(F)(F)F)ccc1F` , please.
A) 48.1

Continuing:
Q) Quick one: inhibition of `c1ccc(-c2n[nH]cc2-c2ccnc(-c3ccc(OCCN4CCOCC4)cc3)c2)nc1` ?
A) 8.98

Q) Need inhibition, item `COC(=O)Nc1nc2ccc(Sc3ccc(NC(=O)Nc4cc(C(F)(F)F)ccc4F)cc3)cc2[nH]1`
A) 3.42

Q) Consider the molecule `COc1cc2ncn(-c3cc(OCCc4ccccc4)c(C(N)=O)s3)c2cc1OC` and give its measured inhibition.
A) 4.7

Q) Find the recorded inhibition belonging to `NS(=O)(=O)c1ccc(Nc2cc(-c3ccc(O)c(F)c3)n[nH]2)cc1` and report it.
A) 23.6

Q) Any idea what inhibition was measured for `Cc1ccc(C(=O)NC2CCC2)cc1-c1ccc(C(=O)NCC2CC2)cc1` ?
A) 4.65

Q) # inhibition lookup, item `O=C(NCC1CC1)c1ccc(-c2cccc(C(=O)NC3CC3)c2)cc1`
A) 5.35

Q) Fill in the blank: the reported inhibition of `CCC(=O)Nc1ccc(C)c(-c2ccc(C(=O)NCC3CC3)cc2)c1` is ____.
A) 2.95
